- TARGET SYSTEM: T1, human CTLA-4-Fc (Chimerigen) (human, UniProt P16410 36-161; P01857 99-330 = IgG part, limits assumed)
- T1 construct: extracellular domain;domain: Fc portion; Bought protein; also called hCTLA-4-Fc; huCTLA-4-Ig
- T1 sequence (P16410 other isoform, or with tags, fused parts or gaps mutant limits assumed): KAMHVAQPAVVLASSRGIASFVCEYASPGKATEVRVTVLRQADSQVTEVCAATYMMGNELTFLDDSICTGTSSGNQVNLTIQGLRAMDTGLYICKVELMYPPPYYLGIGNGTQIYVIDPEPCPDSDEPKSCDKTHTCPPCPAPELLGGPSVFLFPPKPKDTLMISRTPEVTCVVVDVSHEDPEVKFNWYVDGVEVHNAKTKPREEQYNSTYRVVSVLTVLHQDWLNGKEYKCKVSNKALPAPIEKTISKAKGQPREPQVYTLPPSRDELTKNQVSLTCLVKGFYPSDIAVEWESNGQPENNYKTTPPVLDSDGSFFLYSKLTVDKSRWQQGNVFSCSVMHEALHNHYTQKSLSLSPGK
- PROCEDURE SUMMARY: SPR as in Example 9
Below, each entry is listed alongside its reported koff.
EXPERIMENTAL ENDPOINT: koff (s⁻¹)

binder="hNGAL mutein F92.1-J08 (designed binder, also called CTLA-4-J08) QDSTSDLIPAPPLSKVPLQQNFQDNQFHGKWYVVGLAGNRILRDDQHPMNMYATIYELKEDKSYNVTSVIFPHKKCEYTIATFVPGSQPGEFTLGNIKSYGDKTSYLVRVVSTNYNQYAVVFFKLAEDNAEFFAITIYGRTKELASELKENFIRFSKSLGLPENHIVFPVPIDQCIDGSAWSHPQF" measured_value=0.000116
binder="hNGAL mutein S140.3-P07 (designed binder, tagged entry not tied to the name; not shown: N-terminal T7 detection tag from vector phNGAL37; C-terminal Strep-tag II from vector phNGAL37) QDSTSDLIPAPPLSKVPLQQNFQDNQFHGKWYVVGLAGNRILRDDQHPMNMYATIYELKEDKSYNVTSVIFPHKKCEYTIATFVPGSQPGEFTLGNIKSYGDKTSYLVRVVSTDYNQYAVVFFKLAEDDAEFFAITIYGRTKELASELKENFIRFSKSLGLPENHIVFPVPIDQCIDG" measured_value=0.000319
binder="hNGAL mutein S140.4-B16 (designed binder, tagged entry not tied to the name; not shown: N-terminal T7 detection tag from vector phNGAL37; C-terminal Strep-tag II from vector phNGAL37) QDSTSDLIPAPPLSKVPLQQNFQDNQFHGKWYVVGLAGNRILRDDQHPMNMYATIYELKEDKSYNVTSVIFPHKKCEYTIATFVPGSQPGEFTLSDIKSYGDKTSYLVRVVSTDYNQYAVVFFKLAEDNAEFFAITIYGRTKELASELKENFIRFSKSLGLPENHIVFPVPIDQCIDG" measured_value=0.000418
